# Tested on: Zymoseptoria tritici
# measurement_description: Test E: wheat leaf blotch, preventive spray on wheat seedlings
# test_context: 10 ppm; wheat leaf blotch; 100 = 100% disease control, 0 = no control
For each record, write down the corresponding Test E rating (% disease control).
One number for each entry, in %.

CC(C)(C)C(O)(Cn1cncn1)C1=NOC(COCc2ccccc2)C1 (single isomer, unassigned) [Compound 59] | 2
OC(Cn1cncn1)(C1=NOC(c2ccc(C(F)(F)F)cc2)C1)c1ccc(C(F)(F)F)cc1 (single isomer, unassigned) [Compound 153] | 93
CC(C)(C)C(O)(Cn1cncn1)C1=NOC(COc2ccc(-n3cc(Br)cn3)cc2)C1 (stereo not shown) | 0
OC(Cc1ccc(Cl)cc1)(Cn1cncn1)C1=NOC(c2ccc(Cl)cc2)C1 (single isomer, unassigned) [Compound 93] | 4

Lab note: each compound below needs its Test E rating (% disease control) filled in.
1. CCCC(O)(Cn1cncn1)C1=NOC(c2ccc(Cl)cc2)C1 (single isomer, unassigned) [Compound 83]
2. CSc1ccc(C2CC(C(O)(Cn3cncn3)c3ccc(Cl)cc3)=NO2)cc1 (single isomer, unassigned) [Compound 108]
3. CC(C)(C)C(O)(Cn1cncn1)C1=NOC(COc2ccc3c(c2)OCO3)C1 (single isomer, unassigned) [Compound 46]

1. 0
2. 25
3. 0

----------
# System: Zymoseptoria tritici
# measurement_description: Test E: wheat leaf blotch, preventive spray on wheat seedlings
# test_context: 10 ppm test solution; 100 = 100% disease control, 0 = no control relative to controls
For each record, write down the corresponding Test E disease control rating.
Numbers only, in %.

// known answers, use as guide
CC1(C(O)(Cn2cncn2)C2=NOC(COc3ccc(C(F)(F)F)cc3)C2)CC1 (single isomer, unassigned) [Compound 237] | 0
CC(C)(C)C(O)(Cn1cncn1)C1=NOC(COc2cccc(C(F)(F)F)c2)C1 (single isomer, unassigned) [Compound 254] | 0
CC1(COc2ccc(Cl)cc2)CC(C(O)(Cn2cncn2)C(C)(C)C)=NO1 (single isomer, unassigned) [Compound 217] | 0
OC(Cn1cncn1)(C1=NOC(COc2ccc(Cl)cc2)C1)C1(Cl)CC1 (single isomer, unassigned) [Compound 252] | 2
CC(C)CC(O)(Cn1cncn1)C1=NOC(COc2ccc(Cl)cc2)C1 (single isomer, unassigned) [Compound 268] | 0

Look up Test E disease control rating: CC(C)(C)C(O)(Cn1cncn1)C1=NOC(COc2cccc(C(F)(F)F)c2)C1 (single isomer, unassigned) [Compound 253] 3

----------
# Test system: Erysiphe graminis f sp. tritici
# measurement_description: Test G: wheat powdery mildew, preventive spray on wheat seedlings
# test_context: 10 ppm test solution; 100 = 100% disease control, 0 = no control relative to controls
For each record, write down the corresponding Test G disease control rating.

// known answers, use as guide
OC(Cn1cncn1)(C1=NOC(COc2ccc(Cl)cc2)C1)C1(Cl)CC1 (single isomer, unassigned) [Compound 252] | 89%
CC(C)(C)C(O)(Cn1cncn1)C1=NOC(COc2ccc(Cl)cc2)C1 (single isomer, unassigned) [Compound 243] | 0%
CCC(C)(C)C(O)(Cn1cncn1)C1=NOC(COc2ccc(F)cc2)C1 (single isomer, unassigned) [Compound 250] | 99%

Next, consider the following compound.
Look up Test G disease control rating: CC(C)(C)C(O)(Cn1cncn1)C1=NOC(CCOc2ccc(F)cc2)C1 (single isomer, unassigned) [Compound 269] 100%

----------
# Test system: Zymoseptoria tritici
# measurement_description: Test E: wheat leaf blotch, preventive spray on wheat seedlings
# test_context: 10 ppm; wheat leaf blotch; 100 = 100% disease control, 0 = no control
assay_readout: Test E rating (% disease control)
# output: numeric value plus its unit

// known answers, use as guide
OC(Cn1cncn1)(C1=NOC(c2ccc(-n3ccc(C(F)(F)F)n3)cc2)C1)c1ccc(Cl)cc1 (single isomer, unassigned) [Compound 148] | 92%
CC(C)(C)C(O)(Cn1cncn1)C1=NOC(CCOc2ccc(Cl)cc2)C1 (single isomer, unassigned) [Compound 209] | 11%

Next, consider the following compound.
Look up Test E rating (% disease control): OC(Cn1cncn1)(C1=NOC(COC2CCCCC2)C1)c1ccc(Cl)cc1 (single isomer, unassigned) [Compound 90] 0%

----------
# Test system: Stagonospora nodorum
# measurement_description: Test D: wheat glume blotch, preventive spray on wheat seedlings
# test_context: 10 ppm test solution; 100 = 100% disease control, 0 = no control relative to controls
For each record, write down the corresponding Test D disease control rating.
Numbers only, in %.

CC(C)(C)C(O)(Cn1cncn1)C1=NOC(CCOc2ccc(F)cc2)C1 (single isomer, unassigned) [Compound 269] | 99

Lab note: each compound below needs its Test D disease control rating filled in.
1. CC1(C(O)(Cn2cncn2)C2=NOC(COc3ccc(Br)cc3)C2)CC1 (single isomer, unassigned) [Compound 238]
2. CC1(C(O)(Cn2cncn2)C2=NOC(COc3ccc(C(F)(F)F)cc3)C2)CC1 (single isomer, unassigned) [Compound 237]
3. CC(C)(C)C(O)(Cn1cncn1)C1=NOC(COCc2ccc(Cl)cc2)C1 (single isomer, unassigned) [Compound 263]
4. CC1(COc2ccc(Cl)cc2)CC(C(O)(Cn2cncn2)c2ccc(Cl)cc2)=NO1 (single isomer, unassigned) [Compound 218]
5. OC(COc1ccc(Cl)cc1)(Cn1cncn1)C1=NOC(c2ccc(Cl)cc2)C1 (centres unmarked) [Compound 272]
6. CC(C)(C)C(O)(Cn1cnnn1)C1=NOC(COc2ccc(Cl)cc2)C1 (centres unmarked) [Compound 246]

1. 99
2. 89
3. 99
4. 21
5. 69
6. 98

Lab note: each compound below needs its Test D disease control rating filled in.
1. COc1ccc(OCC2CC(C(O)(Cn3cncn3)C(C)(C)C)=NO2)cc1 (single isomer, unassigned) [Compound 260]
2. OC(Cn1cncn1)(C1=NOC(COc2ccc(Cl)cc2)C1)C1CCCCC1 (single isomer, unassigned) [Compound 265]

1: 99; 2: 99

Lab note: each compound below needs its Test D disease control rating filled in.
1. CC(C)(C)C(O)(Cn1cncn1)C1=NOC(COc2cccc(Cl)c2)C1 (single isomer, unassigned) [Compound 230]
2. CC(C)(C)C(O)(Cn1cncn1)C1=NOC(COCc2ccc(Cl)cc2)C1 (single isomer, unassigned) [Compound 264]
3. CC(C)(C)C(O)(Cn1cncn1)C1=NOC(COc2ccc(Cl)cc2Cl)C1 (single isomer, unassigned) [Compound 255]
4. OC(Cn1cncn1)(C1=NOC(COc2ccc(Cl)cc2)C1)C1(Cl)CC1 (single isomer, unassigned) [Compound 252]
5. OC(COc1ccc(Cl)cc1)(Cn1cncn1)C1=NOC(COc2ccc(Cl)cc2)C1 (centres unmarked)

100
0
100
78
42

----------
# Test system: Erysiphe graminis f sp. tritici
# measurement_description: Test G: wheat powdery mildew, preventive spray on wheat seedlings
# test_context: 10 ppm; wheat powdery mildew; 100 = 100% disease control, 0 = no control
For each record, write down the corresponding Test G rating (% disease control).
Give bare numbers, in %.

CC(C)(C)CC(O)(Cn1cncn1)C1=NOC(COc2ccc(Cl)cc2)C1 (single isomer, unassigned) [Compound 172] | 99
OC(Cn1cncn1)(C1=NOC(c2ccc(Oc3ccccc3)cc2)C1)c1ccc(Cl)cc1 (single isomer, unassigned) [Compound 143] | 76
CC(C)(C)C(O)(Cn1cncn1)C1=NOC(COc2ncc(Cl)cn2)C1 (single isomer, unassigned) [Compound 100] | 92
CC(C)(C)C(O)(Cn1cncn1)C1=NOC(CSc2ccc(Cl)cc2)C1 (single isomer, unassigned) [Compound 27] | 89
CC(C)(C)C(O)(Cn1cncn1)C1=NOC(CCc2ccc(C(F)(F)F)cc2)C1 (single isomer, unassigned) [Compound 13] | 100
OC(Cn1cncn1)(C1=NOC(COc2ccc(Cl)cn2)C1)c1ccc(Cl)cc1 (single isomer, unassigned) [Compound 164] | 100

Lab note: each compound below needs its Test G rating (% disease control) filled in.
1. CC(C)(C)C(O)(Cn1cncn1)C1=NOC(COc2ccc(I)cc2)C1 (single isomer, unassigned) [Compound 185]
2. CC(C)C(O)(Cn1cncn1)C1=NOC(c2ccc(Cl)cc2)C1 (single isomer, unassigned) [Compound 3]
3. CC(C)(C)C(O)(Cn1cncn1)C1=NOC(CCc2ccc(Cl)cc2)C1 (single isomer, unassigned) [Compound 15]
4. OC(Cn1cncn1)(C1=NOC(c2ccc(C(F)(F)F)cc2)C1)c1ccc(Cl)cc1 (single isomer, unassigned) [Compound 147]
5. CCC(C)(C)C(O)(Cn1cncn1)C1=NOC(Cc2ccc(C(F)(F)F)cc2)C1 (single isomer, unassigned) [Compound 19]
6. CC(C)(C)CC1CC(C(O)(Cn2cncn2)C(C)(C)C)=NO1 (single isomer, unassigned) [Compound 77]
7. CS(=O)(=O)c1ccc(C2CC(C(O)(Cn3cncn3)c3ccc(Cl)cc3)=NO2)cc1 (single isomer, unassigned) [Compound 114]
8. OC(Cn1cncn1)(C1=NOC(c2ccc(-n3cc(Br)cn3)cc2)C1)c1ccc(Cl)cc1 (single isomer, unassigned) [Compound 6]

99
100
100
90
100
13
56
91

Lab note: each compound below needs its Test G rating (% disease control) filled in.
1. OC(Cn1cncn1)(C1=NOC(Cc2ccc(Br)cc2)C1)c1ccc(Cl)cc1 (single isomer, unassigned) [Compound 55]
2. OC(Cn1cncn1)(C1=NOC(COc2ccc(Cl)nc2)C1)c1ccc(Cl)cc1 (single isomer, unassigned) [Compound 101]
3. OC(Cn1cncn1)(C1=NOC(c2ccc(Br)cc2)C1)c1ccc(Cl)cc1 (single isomer, unassigned) [Compound 178]

1. 99
2. 99
3. 100
